Where these numbers come from: ChEMBL document CHEMBL1773050

Tested on: BSC-1
Test: Cytotoxicity against african green monkey BSC1 cells infected with Vaccinia virus assessed as lactate dehydrogenase release after 20 hrs by microplate reader
Type: cell-based
Conditions: chlorocebus aethiops, bsc-1, 20 h
Experimental readout: CC50

Param item: `CCOC(=O)c1cnc2c(ccc3ccccc32)c1Nc1ccc(N(C)C)cc1` ; param system: BSC-1; output CC50: > 200 µM

Param item: `COc1cc(-c2nc3ccc(Cl)cn3c2Nc2ccc3c(c2)OCCO3)ccc1O` ; param system: BSC-1; output CC50: > 200 µM

Param item: `COc1ccc(Nc2cc(C(=O)NCCCN3CCN(c4ccccc4F)CC3)c3ccccc3n2)c(OC)c1` ; param system: BSC-1; output CC50: > 200 µM

Param item: `COc1ccc(C)cc1N(CC(=O)N1CCC(C)CC1)S(=O)(=O)c1ccc(C)cc1` ; param system: BSC-1; output CC50: > 200 µM

Param item: CCOc1ccc2c(c1)C1CC=CC1[C@H](c1ccccc1Cl)N2 (stereo not given in full) ; param system: BSC-1; output CC50: > 200 µM

Param item: COC(=O)CC1Oc2ccc(C)cc2-n2cc(-c3ccc(F)cc3)nc21 (stereo not given) ; param system: BSC-1; output CC50: 84.1 µM

Param item: `Cc1ccccc1Nc1c(-c2ccc(Br)cc2O)nc2sccn12` ; param system: BSC-1; output CC50: 142 µM

Param item: `CCOc1ccccc1C(=O)Nc1ccc2nc3c(c(Nc4ccc(OC)c(OC)c4)c2c1)CCCC3` ; param system: BSC-1; output CC50: 73.7 µM

Param item: Cc1ccnc(NC(c2ccccc2F)c2ccc3cccnc3c2O)c1 (stereo not given) ; param system: BSC-1; output CC50: > 200 µM

Param item: OC1COc2ccc(-c3cc(-c4ccc(F)cc4)c4c(n3)-c3cc(Cl)ccc3OC4)cc2N1 (stereo not given) ; param system: BSC-1; output CC50: > 200 µM

----------
Test: Cytotoxicity against african green monkey BSC1 cells infected with Vaccinia virus assessed as lactate dehydrogenase release after 20 hrs by microplate reader
Format: cell-based, BSC-1
Settings: chlorocebus aethiops, BSC-1 cells infected with Vaccinia virus
Experimental readout: CC50 at 20 h (µM)
Express the result in µM but write the number alone.

// recorded CC50 at 20 h for O=C1c2ccccc2-c2onc3c2C1C(NC1CCCCC1)C=C3NCCO (stereo unspecified) : 127

----------
Biological target: Uracil-DNA glycosylase (Vaccinia virus (strain Western Reserve) (VACV) (Vaccinia virus (strainWR)), UniProt P04303)
Assay: Inhibition of Vaccinia virus WR strain processivity factor D4 interaction with A20 protein assessed as inhibition of E9 DNA polymerase-mediated DIG-dUTP incorporation into DNA strand by rapid plate assay
For each record, write down the corresponding pIC50.
Reminder that pIC50 means the negative base-10 logarithm of the concentration expressed in mol/L.

// recorded pIC50 for `COc1ccc(C)cc1N(CC(=O)N1CCC(C)CC1)S(=O)(=O)c1ccc(C)cc1` : 3.76

// recorded pIC50 for Cc1ccnc(NC(c2ccccc2F)c2ccc3cccnc3c2O)c1 (stereo not drawn) : 3.80

// recorded pIC50 for `Cc1ccc2oc(-c3ccc(Cl)cc3)c(O)c(=O)c2c1` : 3.71

// recorded pIC50 for `Oc1ccc(NCc2ccccc2OCc2ccccc2)cc1` : 5.29

// recorded pIC50 for `COc1ccc(Nc2c(-c3cc(Br)ccc3O)nc3ncccn23)cc1OC` : 3.70

// recorded pIC50 for `CCOC(=O)c1cnc2c(ccc3ccccc32)c1Nc1ccc(N(C)C)cc1` : 3.86

----------
Test: Selectivity index, CC50 for African green monkey BSC-1 cells to EC50 for Vaccinia virus
Assay type: toxicity, cell-based
Conditions: read-out: Ratio CC50/EC50
Returns one of 1.0 or 0.0; 1.0 when selectivity ratio is >= 9.

Test whether the molecule `COc1ccc(Nc2c(-c3cc(Br)ccc3O)nc3ncccn23)cc1OC` records selectivity ratio of 9 or higher.
0.0

Test whether the molecule `COc1ccc(OCCn2c(NC(=O)c3ccc(OC)cc3)nc3ccccc32)cc1` records selectivity ratio of 9 or higher.
0.0

Test whether the molecule `COc1ccc(Nc2cc(C(=O)NCCCN3CCN(c4ccccc4F)CC3)c3ccccc3n2)c(OC)c1` records selectivity ratio of 9 or higher.
0.0

Test whether the molecule OC1COc2ccc(-c3cc(-c4ccc(F)cc4)c4c(n3)-c3cc(Cl)ccc3OC4)cc2N1 (stereo unspecified) records selectivity ratio of 9 or higher.
0.0

Test whether the molecule `Oc1ccc(NCc2ccccc2OCc2ccccc2)cc1` records selectivity ratio of 9 or higher.
1.0

Test whether the molecule `Cn1c(=O)n(C)c2cc(NS(=O)(=O)c3ccc(C(C)(C)C)cc3)c(NCc3ccccc3)cc21` records selectivity ratio of 9 or higher.
1.0

Test whether the molecule `COc1ccc(N2CCN(Cc3nc4c(c(=O)[nH]c(=O)n4C)n3Cc3ccc(Cl)cc3)CC2)cc1` records selectivity ratio of 9 or higher.
0.0

Test whether the molecule COC(=O)CC1Oc2ccc(C)cc2-n2cc(-c3ccc(F)cc3)nc21 (stereo unspecified) records selectivity ratio of 9 or higher.
0.0

Test whether the molecule `COc1ccc(NCc2nc3ccccc3n2CCOc2ccc(C)cc2)cc1` records selectivity ratio of 9 or higher.
1.0

Test whether the molecule Cc1cc2n(n1)C(c1cc(C(C)(C)C)c(O)cc1O)Nc1ccccc1-2 (stereo unspecified) records selectivity ratio of 9 or higher.
0.0

Test whether the molecule `COc1cc(-c2nc3ccc(Cl)cn3c2Nc2ccc3c(c2)OCCO3)ccc1O` records selectivity ratio of 9 or higher.
1.0

Test whether the molecule `COc1cc(-c2nc(-c3ccccc3)c(-c3ccc(Br)cc3)[nH]2)cc(OC)c1O` records selectivity ratio of 9 or higher.
0.0

Test whether the molecule O=S(=O)(c1ccc(C2=CSC(Nc3ccc(F)cc3)N2CCCCCCO)cc1)N1CCCC1 (stereo unspecified) records selectivity ratio of 9 or higher.
1.0

Test whether the molecule `CN(C)c1ccc(NC(=O)CSc2nc(-c3ccco3)cc(C(F)(F)F)n2)cc1` records selectivity ratio of 9 or higher.
0.0

Test whether the molecule `CCOc1ccccc1C(=O)Nc1ccc2nc3c(c(Nc4ccc(OC)c(OC)c4)c2c1)CCCC3` records selectivity ratio of 9 or higher.
1.0

Test whether the molecule `COc1ccc(/C=C/c2nc(-c3ccccc3O)n(-c3ccccc3)n2)cc1OC` records selectivity ratio of 9 or higher.
0.0

Test whether the molecule `C=C(Cn1cc(C(=O)c2ccc(CC)cc2)c(=O)c2ccccc21)Nc1ccc(OC)c(OC)c1` records selectivity ratio of 9 or higher.
0.0

Test whether the molecule Cc1ccnc(NC(c2ccccc2F)c2ccc3cccnc3c2O)c1 (stereo unspecified) records selectivity ratio of 9 or higher.
1.0

Test whether the molecule `Fc1ccc(Nc2c(-c3ccccn3)nc3ccc(Cl)cn23)cc1` records selectivity ratio of 9 or higher.
1.0

----------
Target: Uracil-DNA glycosylase (Vaccinia virus (strain Western Reserve) (VACV) (Vaccinia virus (strainWR)))
Assay: Binding affinity at Vaccinia virus WR strain D4 assessed as melting temperature at 50 uM by thermofluor method
For each record, write down the corresponding Tm.
Answer format: number, then unit.

// recorded Tm for `COc1ccc(OCCn2c(NC(=O)c3ccc(OC)cc3)nc3ccccc32)cc1` : 34.3 °C

// recorded Tm for `COc1ccc(NCc2nc3ccccc3n2CCOc2ccc(C)cc2)cc1` : 35.2 °C

// recorded Tm for O=S(=O)(c1ccc(C2=CSC(Nc3ccc(F)cc3)N2CCCCCCO)cc1)N1CCCC1 (stereo unspecified) : 35.1 °C

// recorded Tm for OC1COc2ccc(-c3cc(-c4ccc(F)cc4)c4c(n3)-c3cc(Cl)ccc3OC4)cc2N1 (stereo unspecified) : 34.9 °C

// recorded Tm for `COc1ccc(Nc2nc(Nc3ccc(OC)cc3OC)nc(N3CCOCC3)n2)c(OC)c1` : 35 °C

// recorded Tm for `CCOc1ccccc1C(=O)Nc1ccc2nc3c(c(Nc4ccc(OC)c(OC)c4)c2c1)CCCC3` : 36.3 °C

// recorded Tm for CCOc1ccc2c(c1)C1CC=CC1[C@H](c1ccccc1Cl)N2 (stereo partly specified) : 35.2 °C

// recorded Tm for `COc1ccc(Nc2c(-c3cc(Br)ccc3O)nc3ncccn23)cc1OC` : 38.3 °C

// recorded Tm for `Fc1ccc(Nc2c(-c3ccccn3)nc3ccc(Cl)cn23)cc1` : 34.7 °C

// recorded Tm for `COc1ccc(N2CCN(Cc3nc4c(c(=O)[nH]c(=O)n4C)n3Cc3ccc(Cl)cc3)CC2)cc1` : 35.9 °C

// recorded Tm for Cc1ccnc(NC(c2ccccc2F)c2ccc3cccnc3c2O)c1 (stereo unspecified) : 36.4 °C

// recorded Tm for COC(=O)CC1Oc2ccc(C)cc2-n2cc(-c3ccc(F)cc3)nc21 (stereo unspecified) : 32.2 °C

// recorded Tm for `CCOC(=O)c1cnc2c(ccc3ccccc32)c1Nc1ccc(N(C)C)cc1` : 36.3 °C

// recorded Tm for `COc1ccc(Nc2cc(C(=O)NCCCN3CCN(c4ccccc4F)CC3)c3ccccc3n2)c(OC)c1` : 34.8 °C

// recorded Tm for `Cn1c(=O)n(C)c2cc(NS(=O)(=O)c3ccc(C(C)(C)C)cc3)c(NCc3ccccc3)cc21` : 48.4 °C

// recorded Tm for `COc1cc(-c2nc(-c3ccccc3)c(-c3ccc(Br)cc3)[nH]2)cc(OC)c1O` : 43 °C

// recorded Tm for `COc1cc(-c2nc3ccc(Cl)cn3c2Nc2ccc3c(c2)OCCO3)ccc1O` : 36.9 °C

// recorded Tm for `Oc1ccc(NCc2ccccc2OCc2ccccc2)cc1` : 53.3 °C

// recorded Tm for `Cc1ccccc1Nc1c(-c2ccc(Br)cc2O)nc2sccn12` : 36.5 °C

// recorded Tm for `C=C(Cn1cc(C(=O)c2ccc(CC)cc2)c(=O)c2ccccc21)Nc1ccc(OC)c(OC)c1` : 35.4 °C

// recorded Tm for `COc1ccc(/C=C/c2nc(-c3ccccc3O)n(-c3ccccc3)n2)cc1OC` : 34.7 °C
